target-desc: Sodium channel protein type 10 subunit alpha (Homo sapiens)
Sequence (Q9Y5Y9 whole entry, looked up): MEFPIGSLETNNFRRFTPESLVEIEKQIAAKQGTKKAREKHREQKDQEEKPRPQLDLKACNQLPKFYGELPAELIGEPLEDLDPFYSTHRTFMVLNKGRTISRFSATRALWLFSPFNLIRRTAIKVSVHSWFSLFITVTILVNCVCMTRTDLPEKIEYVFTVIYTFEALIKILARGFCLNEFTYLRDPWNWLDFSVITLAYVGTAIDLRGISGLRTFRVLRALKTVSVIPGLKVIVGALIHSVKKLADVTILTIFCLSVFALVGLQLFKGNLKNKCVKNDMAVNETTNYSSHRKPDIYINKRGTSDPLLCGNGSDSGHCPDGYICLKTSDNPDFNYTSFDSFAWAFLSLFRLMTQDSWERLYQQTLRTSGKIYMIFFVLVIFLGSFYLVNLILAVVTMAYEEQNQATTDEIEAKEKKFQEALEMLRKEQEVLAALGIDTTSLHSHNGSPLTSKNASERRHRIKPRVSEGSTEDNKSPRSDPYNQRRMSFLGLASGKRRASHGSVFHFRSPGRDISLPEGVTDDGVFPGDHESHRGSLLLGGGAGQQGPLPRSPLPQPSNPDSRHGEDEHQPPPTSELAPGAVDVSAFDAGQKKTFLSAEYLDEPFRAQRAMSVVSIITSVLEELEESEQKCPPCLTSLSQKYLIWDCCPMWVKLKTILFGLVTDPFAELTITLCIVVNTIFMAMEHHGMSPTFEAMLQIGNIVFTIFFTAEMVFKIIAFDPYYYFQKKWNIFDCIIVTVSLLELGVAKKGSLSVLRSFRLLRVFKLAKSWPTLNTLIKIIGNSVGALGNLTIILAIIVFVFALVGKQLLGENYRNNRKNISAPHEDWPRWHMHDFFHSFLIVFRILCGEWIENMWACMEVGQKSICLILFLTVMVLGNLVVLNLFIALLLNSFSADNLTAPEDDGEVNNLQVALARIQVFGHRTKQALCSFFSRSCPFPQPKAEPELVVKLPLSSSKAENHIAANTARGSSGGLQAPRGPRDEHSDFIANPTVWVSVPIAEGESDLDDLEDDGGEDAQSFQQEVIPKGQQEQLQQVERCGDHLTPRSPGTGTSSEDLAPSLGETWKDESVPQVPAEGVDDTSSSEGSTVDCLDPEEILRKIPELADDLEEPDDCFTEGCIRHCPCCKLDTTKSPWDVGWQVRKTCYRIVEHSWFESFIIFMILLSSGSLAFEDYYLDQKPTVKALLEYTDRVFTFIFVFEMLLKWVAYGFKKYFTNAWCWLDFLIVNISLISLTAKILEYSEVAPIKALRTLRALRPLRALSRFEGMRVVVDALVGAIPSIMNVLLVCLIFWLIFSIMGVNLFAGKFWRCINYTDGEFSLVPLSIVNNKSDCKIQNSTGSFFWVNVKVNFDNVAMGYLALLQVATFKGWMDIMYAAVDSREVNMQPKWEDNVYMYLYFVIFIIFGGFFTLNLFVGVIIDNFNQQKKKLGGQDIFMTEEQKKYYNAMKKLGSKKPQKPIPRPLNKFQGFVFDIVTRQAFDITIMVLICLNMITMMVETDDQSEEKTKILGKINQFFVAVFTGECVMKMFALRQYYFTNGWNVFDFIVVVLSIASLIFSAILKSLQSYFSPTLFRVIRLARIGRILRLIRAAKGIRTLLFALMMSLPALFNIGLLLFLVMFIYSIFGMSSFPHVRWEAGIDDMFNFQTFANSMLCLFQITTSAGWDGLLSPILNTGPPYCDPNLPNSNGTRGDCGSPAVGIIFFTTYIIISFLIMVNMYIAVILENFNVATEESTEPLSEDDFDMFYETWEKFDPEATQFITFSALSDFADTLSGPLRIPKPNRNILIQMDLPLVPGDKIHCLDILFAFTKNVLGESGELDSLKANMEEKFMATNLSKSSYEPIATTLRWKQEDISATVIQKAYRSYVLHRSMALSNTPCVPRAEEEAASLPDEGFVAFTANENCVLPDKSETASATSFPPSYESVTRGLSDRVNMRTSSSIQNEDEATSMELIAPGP
assay-name: Inhibition of human recombinant Nav1.8 channel expressed in HEK293 cells at 1 uM by whole cell voltage clamp technique
Format: cell-based
result-type: inhibition (%)

| mol | target-desc | numeric-value |
| --- | --- | --- |
| O=C(c1ccc(-c2ccc(Oc3ccccc3)cc2)o1)N1CCNCC1 | Sodium channel protein type 10 subunit alpha (Homo sapiens) | 93 |
| CN(C)c1ccc(-c2ccc(C(=O)N3CCN(C4CCCCC4)CC3)o2)cc1 | Sodium channel protein type 10 subunit alpha (Homo sapiens) | 65 |
| O=C(c1ccc(-c2cccc(Cl)c2)o1)N1CCN(C2CCCCC2)CC1 | Sodium channel protein type 10 subunit alpha (Homo sapiens) | 80 |
| CC(C)(C)c1ccc(-c2ccc(C(=O)N3CCNCC3)o2)cc1 | Sodium channel protein type 10 subunit alpha (Homo sapiens) | 85 |
